Measurement protocol: acute oral toxicity (LD-50)
Assay context: in vivo, per os
Metric: LD50

Guide cases for LD50, answers given:
{"Compound": "Cc1ccc(C2(Cn3ccnc3)CCc3ccccc32)cc1C (stereo not drawn)", "Metric": "LD50", "Value": "> 300 mg/kg"}
{"Compound": "OC1(Cn2ccnc2)CCc2ccccc21 (stereo not drawn)", "Metric": "LD50", "Value": "300 mg/kg"}

Here's the next entry for you.
Input: Need LD50 of c1ccc(-c2ccc(C3(Cn4ccnc4)CCc4ccccc43)cc2)cc1 (stereo not drawn) , thanks.
Output: > 300 mg/kg
